Where these numbers come from: paper PMC9234961

# ASSAY REMARKS: Microsomal clearance assay (MLM)
# Assay type: in vitro ADME
# SETTINGS: female, CD1, pH 7.4; mouse liver microsomes, 1 μM compound
Hi! Could you tag entries with microsomal CLint at 0.5 h, 1 µM below 100 µL/min/mg as 1, and those at or above as -1? Much appreciated.

[[record]]
compound = "C[C@@H]1CCCN(c2ncc(Cl)c(Nc3ccc4c(c3)c3c(c(=O)n4C)OCC(F)(F)[C@H](C4CC4)N3)n2)C1 [15b]"
class_name = -1

[[record]]
compound = "Cn1c(=O)c2c(c3cc(Nc4nc(N5CCC[C@@H](O)C5)ncc4Cl)ccc31)N[C@@H](C1CC1)C(F)(F)CO2 [14a]"
class_name = 1

[[record]]
compound = "Cn1c(=O)n(CCC(C)(C)O)c2cc(Nc3nc(N4CCC(F)(F)C(O)C4)ncc3Cl)ccc21 (centres unmarked) [compound 3]"
class_name = 1

[[record]]
compound = "CC(=O)N[C@H]1C[C@@H](C)CN(c2ncc(Cl)c(Nc3ccc4c(c3)c3c(c(=O)n4C)OCC(F)(F)[C@H](C4CC4)N3)n2)C1 [10b]"
class_name = -1

[[record]]
compound = "C[C@H]1C[C@H](O)CN(c2ncc(Cl)c(Nc3ccc4c(c3)c3c(c(=O)n4C)OCC(F)(F)[C@H](C4CC4)N3)n2)C1 [13b]"
class_name = -1

[[record]]
compound = "C[C@H]1C[C@@H](O)CN(c2ncc(Cl)c(Nc3ccc4c(c3)c3c(c(=O)n4C)OCC(F)(F)[C@H](C4CC4)N3)n2)C1 [12a CCT373566]"
class_name = -1

[[record]]
compound = "Cn1c(=O)c2c(c3cc(Nc4nc(N5CCC(F)(F)[C@H](CO)C5)ncc4Cl)ccc31)N[C@@H](C1CC1)C(F)(F)CO2 [9b]"
class_name = -1

[[record]]
compound = "Cn1c(=O)c2c(c3cc(Nc4nc(N5CCC(F)(F)[C@H](O)C5)ncc4Cl)ccc31)N[C@@H](C1CC1)C(F)(F)CO2 (single isomer, unassigned) [8b]"
class_name = 1

[[record]]
compound = "Cn1c(=O)c2c(c3cc(Nc4nc(N5CCC[C@H](O)C5)ncc4Cl)ccc31)N[C@@H](C1CC1)C(F)(F)CO2 [14b]"
class_name = -1

[[record]]
compound = "C[C@@H]1C[C@@H](O)CN(c2ncc(Cl)c(Nc3ccc4c(c3)c3c(c(=O)n4C)OCC(F)(F)[C@H](C4CC4)N3)n2)C1 [13a]"
class_name = 1

[[record]]
compound = "C[C@@H]1C[C@H](O)CN(c2ncc(Cl)c(Nc3ccc4c(c3)c3c(c(=O)n4C)OCC(F)(F)[C@H](C4CC4)N3)n2)C1 [12b CCT373567]"
class_name = 1

[[record]]
compound = "Cn1c(=O)c2c(c3cc(Nc4nc(N5CCC(F)(F)[C@@H](O)C5)ncc4Cl)ccc31)N[C@@H](C1CC1)C(F)(F)CO2 (single isomer, unassigned) [8a]"
class_name = 1

[[record]]
compound = "Cn1c(=O)c2c(c3cc(Nc4nc(N5CCC(F)(F)[C@@H](CO)C5)ncc4Cl)ccc31)N[C@@H](C1CC1)C(F)(F)CO2 [9a]"
class_name = -1

[[record]]
compound = "C[C@@H]1C[C@H](N(C)C)CN(c2ncc(Cl)c(Nc3ccc4c(c3)c3c(c(=O)n4C)OCC(F)(F)[C@H](C4CC4)N3)n2)C1 [11b]"
class_name = -1

[[record]]
compound = "CC(=O)N[C@@H]1C[C@H](C)CN(c2ncc(Cl)c(Nc3ccc4c(c3)c3c(c(=O)n4C)OCC(F)(F)[C@H](C4CC4)N3)n2)C1 [10a]"
class_name = -1

[[record]]
compound = "C[C@H]1CCCN(c2ncc(Cl)c(Nc3ccc4c(c3)c3c(c(=O)n4C)OCC(F)(F)[C@H](C4CC4)N3)n2)C1 [15a]"
class_name = -1

[[record]]
compound = "C[C@H]1C[C@@H](N(C)C)CN(c2ncc(Cl)c(Nc3ccc4c(c3)c3c(c(=O)n4C)OCC(F)(F)[C@H](C4CC4)N3)n2)C1 [11a]"
class_name = -1

